Catalogue of MIC antibiotics values
System: Staphylococcus aureus
Test: Susceptibility testing under planktonic growth condition (MIC)
Conditions: strain SA PIA 9, joint fluid; E-test (rifampicin: broth microdilution)
readout-type: MIC antibiotics (µg/mL)

* CN[C@H](CC(C)C)C(=O)N[C@H]1C(=O)N[C@@H](CC(N)=O)C(=O)N[C@H]2C(=O)N[C@H]3C(=O)N[C@H](C(=O)N[C@H](C(=O)O)c4cc(O)cc(O)c4-c4cc3ccc4O)[C@H](O)c3ccc(c(Cl)c3)Oc3cc2cc(c3O[C@@H]2O[C@H](CO)[C@@H](O)[C@H](O)[C@H]2O[C@H]2C[C@](C)(N)[C@H](O)[C@H](C)O2)Oc2ccc(cc2Cl)[C@H]1O [VAN, vancomycin] | 2
* CN(C)[C@@H]1C(=O)C(C(N)=O)=C(O)[C@@]2(O)C(=O)C3=C(O)c4c(O)cccc4[C@@](C)(O)[C@H]3C[C@@H]12 [TET, tetracycline] | 0.5
* Cc1onc(-c2ccccc2)c1C(=O)N[C@@H]1C(=O)N2[C@@H]1SC(C)(C)[C@@H]2C(=O)O [OXA, oxacillin] | 1
* CC(=O)NC[C@H]1CN(c2ccc(N3CCOCC3)c(F)c2)C(=O)O1 [LZD, linezolid] | 2

----------
Catalogue of MIC antibiotics values
Test system: Staphylococcus epidermidis
Test: Susceptibility testing under planktonic growth condition (MIC)
Conditions: strain SE RP62A ATCC 35984, blood culture; E-test (rifampicin: broth microdilution)
readout-type: MIC antibiotics (µg/mL)

• CC(=O)NC[C@H]1CN(c2ccc(N3CCOCC3)c(F)c2)C(=O)O1 = 1
• Cc1onc(-c2ccccc2)c1C(=O)N[C@@H]1C(=O)N2[C@@H]1SC(C)(C)[C@@H]2C(=O)O = 8
• CN(C)[C@@H]1C(=O)C(C(N)=O)=C(O)[C@@]2(O)C(=O)C3=C(O)c4c(O)cccc4[C@@](C)(O)[C@H]3C[C@@H]12 = 0.5

----------
Tested on: Staphylococcus epidermidis
Assay: Susceptibility testing under planktonic growth condition (MIC)
Conditions: strain SE RP62A ATCC 35984, blood culture; E-test (rifampicin: broth microdilution)
readout-type: MIC antibiotics (µg/mL)

- CN[C@H](CC(C)C)C(=O)N[C@H]1C(=O)N[C@@H](CC(N)=O)C(=O)N[C@H]2C(=O)N[C@H]3C(=O)N[C@H](C(=O)N[C@H](C(=O)O)c4cc(O)cc(O)c4-c4cc3ccc4O)[C@H](O)c3ccc(c(Cl)c3)Oc3cc2cc(c3O[C@@H]2O[C@H](CO)[C@@H](O)[C@H](O)[C@H]2O[C@H]2C[C@](C)(N)[C@H](O)[C@H](C)O2)Oc2ccc(cc2Cl)[C@H]1O: 4
